Target Under Test: DPP IV (Homo sapiens, UniProt P27487)
Sequence (P27487 whole entry, species assumed): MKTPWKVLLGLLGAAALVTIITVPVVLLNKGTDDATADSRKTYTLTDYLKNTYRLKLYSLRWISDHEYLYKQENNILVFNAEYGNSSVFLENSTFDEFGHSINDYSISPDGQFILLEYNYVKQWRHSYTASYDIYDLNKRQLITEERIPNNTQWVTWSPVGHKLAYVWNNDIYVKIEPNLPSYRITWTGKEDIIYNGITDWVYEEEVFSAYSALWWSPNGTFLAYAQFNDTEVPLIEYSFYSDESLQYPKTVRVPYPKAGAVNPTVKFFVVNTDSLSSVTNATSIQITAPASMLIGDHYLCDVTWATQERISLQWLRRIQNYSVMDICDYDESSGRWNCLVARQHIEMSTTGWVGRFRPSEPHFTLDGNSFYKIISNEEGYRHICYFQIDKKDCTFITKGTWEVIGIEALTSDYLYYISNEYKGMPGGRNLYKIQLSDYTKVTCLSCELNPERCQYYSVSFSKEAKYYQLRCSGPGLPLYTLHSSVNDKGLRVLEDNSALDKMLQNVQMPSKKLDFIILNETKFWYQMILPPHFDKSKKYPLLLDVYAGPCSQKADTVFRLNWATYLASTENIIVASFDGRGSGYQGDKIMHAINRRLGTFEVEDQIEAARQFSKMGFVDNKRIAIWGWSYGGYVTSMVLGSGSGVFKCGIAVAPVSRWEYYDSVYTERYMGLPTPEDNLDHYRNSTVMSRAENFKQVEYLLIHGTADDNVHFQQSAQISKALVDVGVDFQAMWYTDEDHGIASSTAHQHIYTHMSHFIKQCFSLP
Assay Overview: Stability against DPP IV enzyme
Type: in vitro ADME
Test Conditions: DPP IV enzyme, pH 7.8, 2 μM peptidomimetic, 37° C., read-out: half-life (t1/2) when incubated with DPP-IV enzyme
Non-standard residues stand in square brackets, D forms with d. Residues, ends and D or L forms follow the SMILES beside them. ξ: configuration not given here. ξBip(2'-Et-4'-OMe) = CCc1cc(OC)ccc1-c1ccc(CC(N)C(=O)O)cc1; ξNva(5-(3-Cl-Ph)) = NC(CCCc1cccc(Cl)c1)C(=O)O; Ac5c = NC1(C(=O)O)CCCC1
Provide the reported half-life at 2 μM of each item.

Some entries whose results are on file:
>>> test_value("CCc1cc(OC)ccc1-c1ccc(CC(CNC(CCCc2ccccc2)C(N)=O)NC(=O)[C@H](CC(=O)O)NC(=O)[C@H](CO)NC(=O)[C@@H](NC(=O)C(C)(Cc2ccccc2F)NC(=O)[C@@H](NC(=O)CNC(=O)[C@H](CC(C(F)(F)F)C(F)(F)F)NC(=O)C(C)(C)NC(=O)[C@@H](N)Cc2c[nH]cn2)[C@H](C)O)[C@H](C)O)cc1 (stereo partly drawn)")
"> 24 h"
>>> test_value("CCc1cc(OC)ccc1-c1ccc(CC(C(=O)N(C)C(CCCc2ccccc2)C(N)=O)N(C)C(=O)[C@H](CC(=O)O)N(C)C(=O)[C@H](CO)NC(=O)[C@@H](NC(=O)C(C)(Cc2ccccc2F)NC(=O)[C@@H](NC(=O)CNC(=O)C(CCC#N)NC(=O)C(C)(C)NC(=O)[C@@H](N)Cc2c[nH]cn2)[C@H](C)O)[C@H](C)O)cc1 (single isomer, unassigned)")
"9 h"
>>> test_value("CCc1cc(OC)ccc1-c1ccc(CC(NC(=O)[C@H](CC(=O)O)NC(=O)[C@H](CO)NC(=O)[C@@H](NC(=O)[C@H](Cc2ccccc2)NC(=O)[C@@H](NC(=O)CNC(=O)C(CCC#N)NC(=O)C(C)(C)NC(=O)[C@@H](N)Cc2c[nH]cn2)[C@@H](C)O)[C@@H](C)O)C(=O)NC(CCCc2ccccc2)C(N)=O)cc1 (single isomer, unassigned)")
"> 24 h"
>>> test_value("CCc1cc(OC)ccc1-c1ccc(CC(NC(=O)[C@H](CC(=O)O)NC(=O)[C@H](CO)NC(=O)[C@@H](NC(=O)C(C)(Cc2ccccc2F)NC(=O)[C@@H](NC(=O)CNC(=O)C(CCC#N)NC(=O)C(C)(C)NC(=O)[C@@H](N)Cc2c[nH]cn2)[C@H](C)O)[C@H](C)O)C(=O)NC(CCCc2ccccc2)C(N)=O)cc1 (single isomer, unassigned)")
"> 24 h"
>>> test_value("CCc1cc(OC)ccc1-c1ccc(CC(C(=O)N(C)C(CCCc2ccccc2F)C(N)=O)N(C)C(=O)[C@H](CC(=O)O)N(C)C(=O)[C@H](CO)NC(=O)[C@@H](NC(=O)C(C)(Cc2ccccc2F)NC(=O)[C@@H](NC(=O)CNC(=O)C(CCC#N)NC(=O)C(C)(C)NC(=O)[C@@H](N)Cc2c[nH]cn2)[C@H](C)O)[C@H](C)O)cc1 (single isomer, unassigned)")
"9 h"

Can you give me half-life at 2 μM for all of these, one by one?
1. CCc1cc(OC)ccc1-c1ccc(CC(NC(=O)[C@H](CC(=O)O)NC(=O)[C@H](CO)NC(=O)[C@@H](NC(=O)[C@H](Cc2ccccc2)NC(=O)[C@@H](NC(=O)CNC(=O)C(CCC#N)NC(=O)C(C)(C)NC(=O)[C@@H](N)Cc2c[nH]cn2)[C@@H](C)O)[C@@H](C)O)C(=O)NC(CCCc2ccc(OC)cc2Cl)C(N)=O)cc1 (single isomer, unassigned)
2. CCc1cc(OC)ccc1-c1ccc(CC(CNC(CCCc2ccccc2)C(N)=O)NC[C@H](CC(=O)O)NC(=O)[C@H](CO)NC(=O)[C@@H](NC(=O)C(C)(Cc2ccccc2F)NC(=O)[C@@H](NC(=O)CNC(=O)[C@H](CCC(N)=O)NC(=O)C(C)(C)NC(=O)[C@H](Cc2c[nH]cn2)NC(=O)OC)[C@@H](C)O)[C@@H](C)O)cc1 (single isomer, unassigned)
3. CCc1cc(OC)ccc1-c1ccc(CC(NC(=O)[C@H](CC(=O)O)NC(=O)[C@H](CO)NC(=O)[C@@H](NC(=O)[C@H](Cc2ccccc2)NC(=O)[C@@H](NC(=O)CNC(=O)[C@H](CCC(N)=O)NC(=O)C2(NC(=O)[C@@H](N)Cc3c[nH]cn3)CCCC2)[C@@H](C)O)[C@@H](C)O)C(=O)NC(CCCc2cccc(Cl)c2)C(N)=O)cc1 (stereo partly drawn) [compound 27] (H-H[Ac5c]QGTFTSD[ξBip(2'-Et-4'-OMe)][ξNva(5-(3-Cl-Ph))]-NH2)
4. CCc1cc(OC)ccc1-c1ccc(CC(CNC(CCCc2ccccc2)C(N)=O)NC(=O)[C@H](CC(=O)O)NC(=O)[C@H](CO)NC(=O)[C@@H](NC(=O)C(C)(Cc2ccccc2F)NC(=O)[C@@H](NC(=O)CNC(=O)C(CCC#N)NC(=O)C(C)(C)NC(=O)[C@@H](N)Cc2c[nH]cn2)[C@H](C)O)[C@H](C)O)cc1 (single isomer, unassigned)

1: > 24 h; 2: > 24 h; 3: > 24 h; 4: > 24 h

Reference for the values: patent US8883963B2
